# tested-system: human somatostatin receptor subtype 2 (Homo sapiens)
# Construct: expressed in transfected cells
# Sequence (P30874 whole entry): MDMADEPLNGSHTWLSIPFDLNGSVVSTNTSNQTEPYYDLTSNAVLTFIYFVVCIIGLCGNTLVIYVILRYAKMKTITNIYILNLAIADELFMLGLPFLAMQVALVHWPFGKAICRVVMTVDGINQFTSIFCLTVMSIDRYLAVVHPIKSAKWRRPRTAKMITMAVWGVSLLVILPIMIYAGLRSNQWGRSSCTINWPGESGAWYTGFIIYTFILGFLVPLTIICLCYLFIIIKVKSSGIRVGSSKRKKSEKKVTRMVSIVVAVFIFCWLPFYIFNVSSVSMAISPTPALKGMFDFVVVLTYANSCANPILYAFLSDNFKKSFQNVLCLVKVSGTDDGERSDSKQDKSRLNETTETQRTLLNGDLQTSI
# experiment: Functional cAMP assay for SSTR2 agonists (HTRF) in CHO-K1 cells
# Type: cell-based
# measurement-parameters: CHO-K1 cells stably expressing human SST2, 20 min; read-out: hSST2 cAMP Avg EC50
Starred links: 1 amine or outer side, 2 acyl side, 3 side chain; linkers in the order of their positions; H or OH if unused. Non-standard residues stand in square brackets, D forms with d. Residues, ends and D or L forms follow the SMILES beside them. *: point of attachment. X1 = Cc1cc(F)cc(-c2cnc(NCCNC(=O)CCOCCC(=O)*)c(-c3nc4ccc(Cl)cc4[nH]3)c2N2CCC(N)CC2)c1; Dolaproine = CO[C@@H]([C@@H]1CCCN1)[C@@H](C)C(=O)O; Dil = CC[C@H](C)[C@H](NC)[C@@H](CC(=O)O)OC; PABC = O=C(OCc1ccc(N[*:1])cc1)[*:2]; X2 = C[C@@H](N*)[C@@H](O)c1ccccc1; Cya = N[C@@H](CS(=O)(=O)O)C(=O)O; Cit = NC(=O)NCCC[C@H](N)C(=O)O; NMeV = CN[C@H](C(=O)O)C(C)C
parameter: pEC50
Keep in mind that pEC50 stands for -log10 of concentration in molar terms.

What value of pEC50 has been reported for the following molecule? CC[C@H](C)[C@@H]([C@@H](CC(=O)N1CCC[C@H]1[C@H](OC)[C@@H](C)C(=O)N[C@H](C)[C@@H](O)c1ccccc1)OC)N(C)C(=O)[C@@H](NC(=O)[C@H](C(C)C)N(C)C(=O)OCc1ccc(NC(=O)[C@H](CCCNC(N)=O)NC(=O)[C@@H](NC(=O)[C@H](CCC(=O)O)NC(=O)[C@H](CS(=O)(=O)O)NC(=O)CCOCCC(=O)NCCNc2ncc(-c3cc(C)cc(F)c3)c(N3CCC(N)CC3)c2-c2nc3ccc(Cl)cc3[nH]2)C(C)C)cc1)C(C)C [Compound 113] (X1-[Cya]EV[Cit][PABC][NMeV]V[Dil][Dolaproine]-X2)
9.48

What value of pEC50 has been reported for the following molecule? `CC[C@H](C)[C@@H]([C@@H](CC(=O)N1CCC[C@H]1[C@H](OC)[C@@H](C)C(=O)N[C@H](C)[C@@H](O)c1ccccc1)OC)N(C)C(=O)[C@@H](NC(=O)[C@H](C(C)C)N(C)C(=O)OCc1ccc(NC(=O)[C@H](CCCNC(N)=O)NC(=O)[C@@H](NC(=O)CCOCCOCCOCCOCCNCCNc2ncc(-c3cc(C)cc(F)c3)c(N3CCC(N)CC3)c2-c2nc3ccc(Cl)cc3[nH]2)C(C)C)c(O[C@@H]2O[C@H](C(=O)O)[C@@H](O)[C@H](O)[C@H]2O)c1)C(C)C`
9.47

What value of pEC50 has been reported for the following molecule? `CC[C@H](C)[C@@H]([C@@H](CC(=O)N1CCC[C@H]1[C@H](OC)[C@@H](C)C(=O)N[C@H](C)[C@@H](O)c1ccccc1)OC)N(C)C(=O)[C@@H](NC(=O)[C@H](C(C)C)N(C)C(=O)OCc1ccc(NC(=O)[C@H](CCCNC(N)=O)NC(=O)[C@@H](NC(=O)CCOCCNCCNc2ncc(-c3cc(C)cc(F)c3)c(N3CCC(N)CC3)c2-c2nc3ccc(Cl)cc3[nH]2)C(C)C)cc1)C(C)C`
9.29

What value of pEC50 has been reported for the following molecule? `CC[C@H](C)[C@@H]([C@@H](CC(=O)N1CCC[C@H]1[C@H](OC)[C@@H](C)C(=O)N[C@H](C)[C@@H](O)c1ccccc1)OC)N(C)C(=O)[C@@H](NC(=O)[C@H](C(C)C)N(C)C(=O)OCc1ccc(NC(=O)[C@H](C)NC(=O)[C@@H](NC(=O)[C@H](CCC(N)=O)NC(=O)CCCCCC(=O)NCCNc2ncc(-c3cc(C)cc(F)c3)c(N3CCC(N)CC3)c2-c2nc3ccc(Cl)cc3[nH]2)C(C)C)cc1C(=O)NCCN)C(C)C`
9.35

What value of pEC50 has been reported for the following molecule? CC[C@H](C)[C@@H]([C@@H](CC(=O)N1CCC[C@H]1[C@H](OC)[C@@H](C)C(=O)N[C@H](C)[C@@H](O)c1ccccc1)OC)N(C)C(=O)[C@@H](NC(=O)[C@H](C(C)C)N(C)C(=O)OCc1ccc(NC(=O)[C@H](CCCNC(N)=O)NC(=O)[C@@H](NC(=O)[C@H](CCC(=O)O)NC(=O)[C@H](CCC(=O)O)NC(=O)CCOCCC(=O)NCCNc2ncc(-c3cc(C)cc(F)c3)c(N3CCC(N)CC3)c2-c2nc3ccc(Cl)cc3[nH]2)C(C)C)cc1)C(C)C [Compound 98] (X1-EEV[Cit][PABC][NMeV]V[Dil][Dolaproine]-X2)
9.60
